# System: COS-1 cells
# test protocol: MTT assay (cell viability)
# Type: cell-based
# experimental parameters: 30 µM; cell viability
Items are presented alongside their recorded MTT.30µM.
measurement label: MTT.30µM

compound: CCN(CC)c1ccc(NC(=O)c2c(-c3ccsc3)noc2C)cc1 [Compound 39m]
target under test: COS-1 cells
measurement label: MTT.30µM
measured value: 82.62

compound: CCN(CC)c1ccc(CN(C(=O)C(F)(F)F)c2c(-c3ccccc3)noc2C)cc1 [Compound 30c]
target under test: COS-1 cells
measurement label: MTT.30µM
measured value: 75.4

compound: CCN(CC)c1ccc(NC(=O)c2snnc2-c2ccccc2)cc1 [Compound 47n]
target under test: COS-1 cells
measurement label: MTT.30µM
measured value: 79.72

compound: CCN(CC)c1ccc(NC(=O)c2ccnn2-c2ccccc2)cc1
target under test: COS-1 cells
measurement label: MTT.30µM
measured value: 88.35

compound: Cc1onc(-c2ccccc2)c1C(=O)Nc1ccc2oc(-c3ccccc3)cc(=O)c2c1
target under test: COS-1 cells
measurement label: MTT.30µM
measured value: 82.48

compound: CCN(CC)c1ccc(CNc2c(-c3ccccc3)noc2C)cc1
target under test: COS-1 cells
measurement label: MTT.30µM
measured value: 96.47

compound: CCN(c1ccc(NC(=O)c2c(C)noc2-c2ccccc2)cc1)C(C)C
target under test: COS-1 cells
measurement label: MTT.30µM
measured value: 61.58

compound: CCN(CC)c1ccc(NC(=O)c2c(C)noc2-c2cc(C)on2)cc1
target under test: COS-1 cells
measurement label: MTT.30µM
measured value: 92.68

compound: CN(C)c1ccc(NCc2c[nH]nc2-c2ccc(F)cc2)cc1
target under test: COS-1 cells
measurement label: MTT.30µM
measured value: 103.47

compound: CCN(CC)c1ccc(/C=N/c2c(-c3ccccc3)noc2C)c(O)c1
target under test: COS-1 cells
measurement label: MTT.30µM
measured value: 89.22

compound: CCN(c1ccc(NC(=O)c2c(-c3ccccc3)noc2C)cc1)C(C)C
target under test: COS-1 cells
measurement label: MTT.30µM
measured value: 85.16

compound: CCN(CC)c1ccc(NCc2c[nH]nc2-c2cc(F)cc(F)c2)cc1
target under test: COS-1 cells
measurement label: MTT.30µM
measured value: 103.16

compound: CCCn1nnc(-c2ccccc2)c1C(=O)Nc1ccc(N(CC)CC)cc1
target under test: COS-1 cells
measurement label: MTT.30µM
measured value: 105.89

compound: CCN(CC)c1ccc(NC(=O)c2cc(C)oc2-c2ccccc2)cc1
target under test: COS-1 cells
measurement label: MTT.30µM
measured value: 71.09

compound: CCN(CC)c1ccc(NC(=O)c2cnsc2)cc1 [Compound 47s]
target under test: COS-1 cells
measurement label: MTT.30µM
measured value: 105.44

compound: CCN(CC)c1ccc(NC(=O)c2cnoc2-c2ccccc2)cc1 [Compound 47d]
target under test: COS-1 cells
measurement label: MTT.30µM
measured value: 93.95

compound: CCC(OC)c1ccc(OCc2c(-c3ccccc3)noc2C)cc1 (racemic) [Compound 34e]
target under test: COS-1 cells
measurement label: MTT.30µM
measured value: 79.5

compound: CCN(CC)c1ccc(NC(=O)c2csc([N+](=O)[O-])c2)cc1 [Compound 47u]
target under test: COS-1 cells
measurement label: MTT.30µM
measured value: 88.36

compound: COc1ccc(-c2cc(NC(=O)c3ccc(C(C)(C)C)cc3)n[nH]2)cc1
target under test: COS-1 cells
measurement label: MTT.30µM
measured value: 107.89

compound: CCN(CC)c1ccc(NC(=O)c2c[nH]nc2-c2ccccc2)cc1
target under test: COS-1 cells
measurement label: MTT.30µM
measured value: 96.92

compound: CCN(CC)c1ccc(NC(=O)c2c(-c3cccc([N+](=O)[O-])c3)noc2C)cc1 [Compound 39g]
target under test: COS-1 cells
measurement label: MTT.30µM
measured value: 104.14

compound: CCN(CC)c1ccc(NC(=O)c2cnc(SC)n2-c2ccc(F)cc2)cc1 [Compound 47z]
target under test: COS-1 cells
measurement label: MTT.30µM
measured value: 93

compound: CCN(CC)c1ccc(NC(=O)c2c(-c3ccccc3)nnn2CCc2ccccc2)cc1
target under test: COS-1 cells
measurement label: MTT.30µM
measured value: 80.74

compound: Cc1onc(-c2ccccc2)c1C(=O)Nc1ccc(OCc2ccccc2)cc1
target under test: COS-1 cells
measurement label: MTT.30µM
measured value: 59.22

compound: CC[N+](O)(CC)c1ccc(NC(=O)c2c(-c3ccccc3)noc2C)cc1
target under test: COS-1 cells
measurement label: MTT.30µM
measured value: 95.62

Values compiled from paper PMC7076710.
